QUANTITY_MEASURED: IC50 (µM)
Record the value in µM, omitting the unit from your answer.

Prompt line: Lab note: need IC50 for NNC(=O)c1ccc(Oc2ccccc2)cc1 [Compound 3, 4-Phenoxybenzohydrazide] on InhA reductase enzyme (Mycobacterium tuberculosis, UniProt P9WGR1), anyone have it?
Response line: 3.43

Prompt line: Lab note: need IC50 for c1ccc(Oc2ccc(-c3nnc(-c4ccco4)o3)cc2)cc1 on InhA reductase enzyme (Mycobacterium tuberculosis, UniProt P9WGR1), anyone have it?
Response line: 51.4

Prompt line: Lab note: need IC50 for O=C(N/N=C/c1ccco1)c1ccc(Oc2ccccc2)cc1 on InhA reductase enzyme (Mycobacterium tuberculosis, UniProt P9WGR1), anyone have it?
Response line: 18.4

Prompt line: Lab note: need IC50 for c1ccc(Oc2ccc(-c3nnc(-c4ccncc4)o3)cc2)cc1 on InhA reductase enzyme (Mycobacterium tuberculosis, UniProt P9WGR1), anyone have it?
Response line: 11.7

Prompt line: Lab note: need IC50 for c1ccc(Oc2ccc(-c3nnc(-c4cccs4)o3)cc2)cc1 on InhA reductase enzyme (Mycobacterium tuberculosis, UniProt P9WGR1), anyone have it?
Response line: 78.6

Prompt line: Lab note: need IC50 for O=C(N/N=C/c1cccs1)c1ccc(Oc2ccccc2)cc1 on InhA reductase enzyme (Mycobacterium tuberculosis, UniProt P9WGR1), anyone have it?
Response line: 5.61

Prompt line: Lab note: need IC50 for Clc1ccc(-c2nnc(-c3ccc(Oc4ccccc4)cc3)o2)cc1 on InhA reductase enzyme (Mycobacterium tuberculosis, UniProt P9WGR1), anyone have it?
Response line: 64.5

Prompt line: Lab note: need IC50 for c1ccc(Oc2ccc(-c3nnc(-c4cccnc4)o3)cc2)cc1 on InhA reductase enzyme (Mycobacterium tuberculosis, UniProt P9WGR1), anyone have it?
Response line: 5.08

Prompt line: Lab note: need IC50 for O=C(N/N=C/c1ccncc1)c1ccc(Oc2ccccc2)cc1 on InhA reductase enzyme (Mycobacterium tuberculosis, UniProt P9WGR1), anyone have it?
Response line: 21.4

Prompt line: Lab note: need IC50 for O=C(N/N=C/c1ccc(OCc2ccccc2)cc1)c1ccc(Oc2ccccc2)cc1 on InhA reductase enzyme (Mycobacterium tuberculosis, UniProt P9WGR1), anyone have it?
Response line: 29.9

Prompt line: Lab note: need IC50 for c1ccc(Oc2ccc(-c3nnco3)cc2)cc1 on InhA reductase enzyme (Mycobacterium tuberculosis, UniProt P9WGR1), anyone have it?
Response line: 3.28

Prompt line: Lab note: need IC50 for c1ccc(Oc2ccc(-c3nnc(-c4cccc5ccccc45)o3)cc2)cc1 on InhA reductase enzyme (Mycobacterium tuberculosis, UniProt P9WGR1), anyone have it?
Response line: 33.8

Prompt line: Lab note: need IC50 for c1ccc(COc2ccc(-c3nnc(-c4ccc(Oc5ccccc5)cc4)o3)cc2)cc1 on InhA reductase enzyme (Mycobacterium tuberculosis, UniProt P9WGR1), anyone have it?
Response line: 41.2

Prompt line: Lab note: need IC50 for c1ccc(Oc2ccc(-c3nnc(-c4ccc(Oc5ccccc5)cc4)o3)cc2)cc1 on InhA reductase enzyme (Mycobacterium tuberculosis, UniProt P9WGR1), anyone have it?
Response line: 5.63

Prompt line: Lab note: need IC50 for O=C(N/N=C/c1cccnc1)c1ccc(Oc2ccccc2)cc1 on InhA reductase enzyme (Mycobacterium tuberculosis, UniProt P9WGR1), anyone have it?
Response line: 26.5

Prompt line: Lab note: need IC50 for O=C(N/N=C/c1ccc(Cl)cc1)c1ccc(Oc2ccccc2)cc1 on InhA reductase enzyme (Mycobacterium tuberculosis, UniProt P9WGR1), anyone have it?
Response line: 7.46
